# experimental system: T1, recombinant human IL-6 (human, UniProt P05231 30-212, labeled with radioactive iodine)
# T1 construct: Labeled probe in solution, added to wells that carry the synthetic peptides; also called IL-6 ligand; Interleukin-6
# test name: radioiodinated IL-6 on peptide array; experiment D11-D57
Values of Counts/minute bound greater than or equal to 4000 counts/minute map to yes; values below map to no.

Examples from the recorded data:
[
  {
    "binder": "GGSLAFGTLACIAIVLRFKKT (alanine-scan variant of the domain IV 21-mer) [Peptide D54]",
    "class assignment": "yes"
  },
  {
    "binder": "GGSLAFGTLLC [Peptide D21]",
    "class assignment": "no"
  },
  {
    "binder": "GGSLAFGTLLCIAIVLRFK [Peptide D13]",
    "class assignment": "yes"
  }
]

Please find the next binder below.
Enquiry: Is Counts/minute bound for GGSLAFGTLLCIAIV [Peptide D17] at or above 4000 counts/minute?
Return: no
